src = patent US20220048967A1

System: Pro-Link-tagged Human GLP-1R (human, UniProt P43220 24-463)
Experiment: cell-based or functional assay
Readout: hGLP1R B-Arrestin2 % Top (%)
Numbers only, in %.

Use the examples below as a reference point.
- Binder: "FXEGTFTSDYSIXLDKKAQXAFIEYLIEGGPSSGAPPPS (Aib2, αMeL13, K17 conjugated to (2-[2-(2-Amino-ethoxy)-ethoxy]-acetyl)2-(γ-Glu)-CO-(CH2)18-CO2H, Aib20, C-terminal amide (NH2)) [Example 327]"
  hGLP1R B-Arrestin2 % Top (%): 41.6
- Binder: "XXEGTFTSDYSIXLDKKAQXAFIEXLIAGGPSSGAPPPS (D-Tyr1, Aib2, αMeL13, K17 conjugated to (2-[2-(2-Amino-ethoxy)-ethoxy]-acetyl)2-(γ-Glu)-CO-(CH2)18-CO2H, Aib20, αMeY25, C-terminal amide (NH2)) [Example 365]"
  hGLP1R B-Arrestin2 % Top (%): 20.8
- Binder: "XXEGTFTSDYSIXLDXKAQXEFIEXLIEGGPSSGAPPPS (D-Tyr1, Aib2, αMeL13, Orn16, K17 conjugated to (2-[2-(2-Amino-ethoxy)-ethoxy]-acetyl)2-(γ-Glu)-CO-(CH2)18-CO2H, Aib20, αMeY25, C-terminal amide (NH2)) [Example 380]"
  hGLP1R B-Arrestin2 % Top (%): 35
- Binder: "XXEGTFTSDYSIXLDEKAQXAFIEXLIAGGPSSGAPPPS (D-Tyr1, Aib2, αMeL13, K17 conjugated to (2-[2-(2-Amino-ethoxy)-ethoxy]-acetyl)2-(γ-Glu)-CO-(CH2)18-CO2H, Aib20, αMeY25, C-terminal amide (NH2)) [Example 381]"
  hGLP1R B-Arrestin2 % Top (%): 25.8
- Binder: "YXEGTFTSDYSIXLDEKAQXDFIEYLIAGGPSSGAPPPS (not fully specified; Aib2, αMeL13, K17 conjugated to (2-[2-(2-Amino-ethoxy)-ethoxy]-acetyl)2-(γ-Glu)-CO-(CH2)18-CO2H, Aib20, C-terminal amide (NH2)) [Example 344]"
  hGLP1R B-Arrestin2 % Top (%): 46

Next up:
q: Entry under review: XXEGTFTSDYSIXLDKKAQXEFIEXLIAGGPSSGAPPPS (D-Tyr1, Aib2, αMeL13, K17 conjugated to (2-[2-(2-Amino-ethoxy)-ethoxy]-acetyl)2-(γ-Glu)-CO-(CH2)18-CO2H, Aib20, αMeY25, C-terminal amide (NH2)) [Example 292] . Reported hGLP1R B-Arrestin2 % Top?
a: 29
